Where do the numbers come from? From patent US20250154169A1.

tested on: MYB mRNA; test: Splicing RT-qPCR assay, MYB canonical (CJ) and alternative (AJ) junction mRNA; format: cell-based, human; conditions: Homo sapiens, 24 h, A673 or K562 cells, 24 hours compound treatment, RT-qPCR; read-out: MYB CJ (IC50, decrease in canonical junction mRNA)
What IC50 was measured for each of the following?

Input line: IC50 for CNc1cc(N2CCNCC2)c2cn(C)nc2c1C(=O)Nc1cc(F)c2nc(C)cn2c1 [Compound 362] ?
Output line: 1 to 10 µM

Input line: Request the reported IC50 associated with Cc1cn2cc(NC(=O)c3ccc(N4C[C@@H](C)N[C@@H](C)C4)c4cn(C)nc34)cc(F)c2n1 [Compound 326]
Output line: < 0.1 µM

Input line: # get_value(readout='IC50', item= Cc1cn2cc(NC(=O)c3ccc(N4CCNCC4)c4cn(CC5COC5)nc34)cc(F)c2n1 [Compound 497] )
Output line: < 0.1 µM

Input line: Fill in the blank: the reported IC50 of CCn1cc2c(N3CCC(N[C@H]4C[C@H](O)C4)CC3)ccc(C(=O)Nc3cc(F)c4nc(C)cn4c3)c2n1 [Compound 560] is ____.
Output line: 0.1 to 1 µM

Input line: Find the recorded IC50 belonging to Cc1cn2cc(NC(=O)c3ccc(N4CCNCC4)c4cn(C)nc34)nc2c(C)n1 [Compound 273] and report it.
Output line: 0.1 to 1 µM

Input line: Which measured IC50 value corresponds to C=CCN[C@@H]1CCN(c2ccc(C(=O)Nc3cc(F)c4nc(C)cn4c3)c3nn(C)cc23)C1 [Compound 554] ?
Output line: 0.1 to 1 µM

Input line: # get_value(readout='IC50', item= Cc1cn2cc(NC(=O)c3ccc(C4CC(C)(C)NC(C)(C)C4)c4cc(C)oc34)cc(F)c2n1 [Compound 271] )
Output line: 1 to 10 µM

Input line: What IC50 value was documented for this molecule, CCn1cc2c(N3CC[C@@H](N(C)C)C3)cc(F)c(C(=O)Nc3cc(F)c4nc(C)cn4c3)c2n1 [Compound 473, bis(trifluoroacetic acid)] ?
Output line: < 0.1 µM

Input line: IC50 lookup needed for Cc1cn2cc(NC(=O)c3ccc(N4CCC(N(C)C)C4)c4cc(C)oc34)cc(F)c2n1 (stereo not drawn) [Compound 202] , thanks.
Output line: 0.1 to 1 µM

Input line: I would be grateful if you could share the reported IC50 for Cc1cn2cc(NC(=O)c3ccc(N4CC5(CNC5)C4)c4cc(C)oc34)cc(F)c2n1 [Compound 205] .
Output line: 0.1 to 1 µM

Input line: Entry CCN(c1ccc(C(=O)Nc2cc(F)c3nc(C)cn3c2)c2nn(C)cc12)C1CCNCC1 [Compound 527] : reported IC50 = ?
Output line: 0.1 to 1 µM

Input line: For Cc1cn2cc(NC(=O)c3ccc(N4CCC5(CC4)CNC5)c4cn(C)nc34)cc(F)c2n1 [Compound 348] , what is its reported IC50?
Output line: < 0.1 µM

Input line: Tell me the measured IC50 of Cc1cn2cc(NC(=O)c3ccc(N4CCC(N)(C(F)(F)F)CC4)c4cn(C)nc34)cc(F)c2n1 [Compound 370] , please.
Output line: 0.1 to 1 µM

Input line: Entry CCn1cc2c(N3CCNCC3)cc(F)c(C(=O)Nc3cc(F)c4nc(C)cn4c3)c2n1 [Compound 474] has what IC50?
Output line: < 0.1 µM

Input line: # lookup: IC50 of CC(=O)NC1CCN(c2ccc(C(=O)Nc3cc(F)c4nc(C)cn4c3)c3nn(C)cc23)CC1 [Compound 328]
Output line: 1 to 10 µM
